half-life values for the molecules below.
Experiment: Pharmacokinetics study in rats (plasma and brain)
Format: in vivo, Sprague−Dawley rats
Details: Sprague-Dawley, rat, brain, ip, 5 mg/kg, 5 mg/kg IP, brain, read-out: half-life (h) brain (converted)
Provide the reading as a plain figure in h.

Would you please look over these solved cases?
SMILES DATA: Cc1cccc(-n2cc(CN3CCN(c4ccc(Cl)cn4)CC3)nn2)c1
UNITS SYMBOL: h
half-life: 2.36
--
SMILES DATA: Cc1cccc(-n2cc(CN3CCC(c4ccccc4)CC3)nn2)c1
UNITS SYMBOL: h
half-life: 0.4

Please examine the following record next.
IN: Requested read-out: half-life. Entry: `Cc1cccc(-n2cc(CN3CCN(c4ccccn4)CC3)nn2)c1`
OUT: 1.02

* * *

Biological target: human D2R long isoform (Homo sapiens)
Sequence (P14416 whole entry, canonical isoform): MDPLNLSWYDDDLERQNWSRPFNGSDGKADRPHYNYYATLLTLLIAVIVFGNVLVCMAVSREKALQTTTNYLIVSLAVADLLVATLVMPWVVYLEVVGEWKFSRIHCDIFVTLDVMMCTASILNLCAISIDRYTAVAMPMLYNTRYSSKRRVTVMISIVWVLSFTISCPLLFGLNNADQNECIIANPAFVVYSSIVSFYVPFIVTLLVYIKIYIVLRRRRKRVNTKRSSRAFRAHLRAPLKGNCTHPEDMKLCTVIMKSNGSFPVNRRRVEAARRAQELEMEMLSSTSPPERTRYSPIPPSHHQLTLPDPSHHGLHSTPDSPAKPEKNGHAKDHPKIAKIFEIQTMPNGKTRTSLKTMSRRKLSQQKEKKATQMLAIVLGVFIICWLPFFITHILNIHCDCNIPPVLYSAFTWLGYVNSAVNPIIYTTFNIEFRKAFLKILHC
Assay: DiscoverX PathHunter β-arrestin recruitment assay, D2R
MEASUREMENT LABEL: pEC50
// pEC50 here means minus log10 of the molar concentration (mol/L)

IN: Give its pEC50 value. Item: Cc1cccc(-n2cc(CN3CCN(c4ncccn4)CC3)nn2)c1 [Compound 16]
OUT: 5.16

* * *

Molecular target: human D3R (Homo sapiens)
Sequence (P35462 whole entry): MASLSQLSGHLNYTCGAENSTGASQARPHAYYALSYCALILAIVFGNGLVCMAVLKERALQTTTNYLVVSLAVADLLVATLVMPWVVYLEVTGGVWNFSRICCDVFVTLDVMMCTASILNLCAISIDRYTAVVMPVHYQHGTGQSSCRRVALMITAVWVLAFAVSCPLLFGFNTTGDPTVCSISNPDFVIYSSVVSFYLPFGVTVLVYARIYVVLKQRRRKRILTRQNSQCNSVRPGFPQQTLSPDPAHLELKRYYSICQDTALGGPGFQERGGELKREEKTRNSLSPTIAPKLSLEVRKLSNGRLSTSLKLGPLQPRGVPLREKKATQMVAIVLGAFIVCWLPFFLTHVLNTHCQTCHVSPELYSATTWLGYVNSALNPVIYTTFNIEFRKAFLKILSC
Experiment: DiscoverX PathHunter β-arrestin recruitment assay, D3R
MEASUREMENT LABEL: EC50 (µM)
Response body: numeric value in µM, unit text excluded.

IN: May I ask what EC50 has been recorded for Cc1cccc(-n2cc(CN3CCN(c4ccccn4)CC3)nn2)c1 [Compound 15] ?
OUT: 3.6

* * *

Assay: Pharmacokinetics study in rats (plasma and brain)
Type: in vivo, Sprague−Dawley rats
Settings: Sprague-Dawley; rat, 5 mg/kg IP, plasma
Method: Given their adequate in vitro stability profiles, we next evaluated the in vivo pharmacokinetic profiles of 14, 15, 17, and 18 in rats. Sprague−Dawley rats were dosed with 5 mg/kg (14, 15, 17) or 10 mg/kg (18), i.p., and plasma and brain levels of each drug were measured 0−6 h postdose. All animal experiments were performed following the protocols evaluated and approved by the Animal Care and Use Committee at Johns Hopkins University (Ethics Approval Number: RA24M403). […]
# reported AUC; entries follow
Your answer is read as µM·h, so omit the unit and give the number.

Here are 2 molecules together with their reported answers.
MOLECULE: Cc1cccc(-n2cc(CN3CCC(c4ccccc4)CC3)nn2)c1 [Compound 14]
AUC, µM·h: 1.56
--
MOLECULE: Cc1cccc(-n2cc(CN3CCN(c4ccc(Cl)cn4)CC3)nn2)c1 [Compound 17]
AUC, µM·h: 15.1

IN: For the molecule shown here, Cc1cccc(-n2cc(CN3CCN(c4ccccn4)CC3)nn2)c1 [Compound 15] , give the reported AUC.
OUT: 2.65

* * *

Listed here: compounds with reported pKi for human D4R (Homo sapiens, UniProt P21917).
// scale note: pKi = -log10(conc_M); give the bare number

IN: Look up pKi for this compound: `Cc1cccc(-n2cc(CN3CCN(c4ccc(Cl)cn4)CC3)nn2)c1`
OUT: 7.11

IN: Same question for `Cc1cccc(-n2cc(CN3CCN(c4cccc5ccccc45)CC3)nn2)c1` please.
OUT: 8.36

* * *

Experiment: Pharmacokinetics study in rats (plasma and brain)
Type: in vivo, Sprague−Dawley rats
Details: Sprague-Dawley; rat, 5 mg/kg IP, plasma; read-out: Tmax (h) plasma
MEASUREMENT LABEL: Tmax (h)
Numbers only here, please. The scale is h.

Consider the reported Tmax for these compounds:
COMPOUND: Cc1cccc(-n2cc(CN3CCN(c4ccc(Cl)cn4)CC3)nn2)c1 [Compound 17]
UNITS SYMBOL: h
Tmax: 0.25
--
COMPOUND: Cc1cccc(-n2cc(CN3CCC(c4ccccc4)CC3)nn2)c1 [Compound 14]
UNITS SYMBOL: h
Tmax: 0.25

IN: # Tmax lookup, item Cc1cccc(-n2cc(CN3CCN(c4ccccn4)CC3)nn2)c1 [Compound 15]
OUT: 0.25
